System: Mus musculus
Experiment: Anticonvulsant activity in po dosed mouse assessed as reduction of maximal electroshock-induced seizures
Assay type: functional
PROPERTY_MEASURED: Activity (mg/kg)
Answers are plain numbers, in mg/kg.

// known answers, use as guide
[ask] Identify measured Activity associated with CNC1=Nc2ccc(Cl)cc2C(c2ccccc2)=[N+]([O-])C1.Cl [CHLORDIAZEPOXIDE HYDROCHLORIDE]
[reply] 92

[ask] Identify measured Activity associated with "CN(C)CCCN1c2ccccc2Sc2ccc(Cl)cc21"
[reply] 150

[ask] Identify measured Activity associated with "CCC1(c2ccccc2)C(=O)NC(=O)NC1=O"
[reply] 18

[ask] Identify measured Activity associated with CCCC(C)(COC(N)=O)COC(N)=O [MEPROBAMATE]
[reply] 200

Others:
[ask] Identify measured Activity associated with "O=C1C[N+]([O-])=C(c2ccccc2)c2cc(Cl)ccc2N1"
[reply] 150
